Reference for the values: patent US10214492B2

assay: Pharmacokinetic assay in rat (IV 3 mg/kg, PO 10 mg/kg); format: in vivo; details: Male Sprague-Dawley rat, plasma, PO 10 mg/kg, read-out: Rat t1/2 (converted)
Field: label. Allowed values: y (half-life < 3 h) or n (half-life >= 3 h).

Would you kindly verify if half-life of CCn1ncc2ccc(-c3cc(CO[C@](C)(CC)C(=O)O)nn3Cc3ccccc3Cl)cc21 [Example 220] is strictly less than 3 h?
y

Would you kindly verify if half-life of Cc1ccccc1-n1nc(COC(C)(C)C(=O)O)cc1-c1cccc(OC2CCC2)c1 [Example 161] is strictly less than 3 h?
n

Would you kindly verify if half-life of Cn1ncc2cccc(-n3nc(COC(C)(C)C(=O)O)cc3-c3cccc(OCC(C)(C)C)c3)c21 [Example 167] is strictly less than 3 h?
y

Would you kindly verify if half-life of CC(C)(OCc1cc(-c2cccc(OC3CCC3)c2)n(-c2ccccc2N2CCC2)n1)C(=O)O [Example 260] is strictly less than 3 h?
n

Would you kindly verify if half-life of CC(C)COc1cccc(-c2cc(COC(C)(C)C(=O)O)nn2-c2cccc3cnn(C)c23)c1 [Example 170] is strictly less than 3 h?
y

Would you kindly verify if half-life of COc1cc(OC)cc(-c2cc(COC(C)(C)C(=O)O)nn2Cc2ccccc2Cl)c1 [Example 224] is strictly less than 3 h?
y

Would you kindly verify if half-life of COc1cc(OC)cc(-c2cc(COC(C)(C)C(=O)O)nn2-c2ccccc2Cl)c1 [Example 179] is strictly less than 3 h?
y

Would you kindly verify if half-life of CCOc1ccccc1Cn1nc(CO[C@](C)(CC)C(=O)O)cc1-c1cc(OC)cc(OC)c1 [Example 264] is strictly less than 3 h?
n

Would you kindly verify if half-life of CCn1ncc2ccc(-c3cc(COC(C)(C)C(=O)O)nn3Cc3ccccc3Cl)cc21 [Example 150] is strictly less than 3 h?
n

Would you kindly verify if half-life of CCn1ncc2ccc(-c3cc(CO[C@](C)(CC)C(=O)O)nn3-c3ccccc3N3CCCC3)cc21 [Example 268] is strictly less than 3 h?
y

Would you kindly verify if half-life of Cn1ncc2cccc(-n3nc(COC(C)(C)C(=O)O)cc3-c3cccc(OC4CC4)c3)c21 [Example 191] is strictly less than 3 h?
n

Would you kindly verify if half-life of CCn1ncc2ccc(-c3cc(CO[C@@](C)(CC)C(=O)O)nn3Cc3ccccc3Cl)cc21 [Example 257] is strictly less than 3 h?
y

Would you kindly verify if half-life of CCn1ncc2ccc(-c3cc(COC(C)(C)C(=O)O)nn3-c3ccccc3N3CCCC3)cc21 [Example 229] is strictly less than 3 h?
y

Would you kindly verify if half-life of CC(C)(OCc1cc(-c2cccc(OC3CC3)c2)n(-c2ccccc2N2CCC2)n1)C(=O)O [Example 232] is strictly less than 3 h?
y

Would you kindly verify if half-life of CCCn1ncc2ccc(-c3cc(CO[C@](C)(CC)C(=O)O)nn3-c3ccccc3N3CCC3)cc21 [Example 267] is strictly less than 3 h?
y

Would you kindly verify if half-life of CCOc1cc(OCC)cc(-c2cc(COC(C)(C)C(=O)O)nn2-c2ccccc2Cl)c1 [Example 180] is strictly less than 3 h?
n
